# Assay overview: soluble on expression in E. coli; label from the status in PepcDB or PDB records

Sequence entry	soluble on expression in E. coli
MAHHHHHHMLGSGKSSGVVNEASNLKANQNLTSAIEEMNTKEYIRNRDLNDVVPTHRRQVEAMMNKGNNNNGKVGLPAYDPAAEKEKERKERGQTHIEDRNDSDDDGELEELRKRRMAQMQQHHAKVAEWRQKQHGQYREISQDEFFSIVVREKGGSDDVCVHFYHKDFETCRVMDSRLLELSRMMLSVKFVKIDAEKSPFLVERLHIKTLPCCVLFHNDVAVDRIYGFEGCIGEDGLLDKELLGERILRAVNCKQEECE	soluble
MDDLQADDIKTSDENSAMVLLVDDQAMIGEAVRRGLAGHESIDFHFCADPHQAIAQAVQIKPTVILQDLVMPGLDGLTLVREYRSNPLTRDIPIIVLSTKEDPLIKSAAFAAGANDYLVKLPDNIELVARIRYHSRSYMTLLQRDEAYRALRVSQQQLLDTNLVLQRLMNSDGLTGLSNRRHFDEYLELEWRRATRDQAQLSLLMIDVDYFKAYNDNFGHLEGDEALRQVAKAIRNSCSRPSDLPARYGGEEFAMVLPNTSPGGARLLAEKLRQSVAGMNIPHIAPVPGSSLTVSIGVATVTPQVGQHSRQLILDADKGLYLAKNNGRNQVAAG	soluble

###

# Assay overview: soluble on expression in E. coli; label from the status in PepcDB or PDB records
Recorded metric: soluble on expression in E. coli

Sequence entry	Result
MGSDKIHHHHHHMADIALFQDDAFSLSSLTAAINEQPHVPGRVGALGLFEEDGITTTTIQIERDGDTLSLVSAGERGSPSAIVVGSKRTMIPFNTVHLPQRAFVKADEIQNLRAFGSETELEALQTVVNRRLAKLRRQLDATHEFHRIGAIKGAVLDADGKTVLIDLLQYFGIEQTVIPFELGKADTEIRVKCLEVQDAIEDALGATTYTGVRVLCGRAFWNKLIVAKTVKETYLATAMAASLRGDAREALDFGGCTFERYRGRVGDIGYVADDEAYAVPEGVPELFVTRFAPADYVEAVNTTGLPYYAKQELAQFGKGVDIEAQSNPVHLCTRPKAIVKLKA	not soluble
MKKYIALAWVCLALTDVMAQKQKVVEKVVDEDYYPVEGAVVTLKRTNQNATTDKDGVFILEEVPVYFDSLQVKKGKRSGYIDLPMRIQMRTQVMQRFSWSVKAGIGAGKFMQGPESKLKDGFSIYGGVGADIRMSKHWAFQPSLLLVSRKMKGYDFYGYYAENNGDGSSSASYEQVSGTYNPFYLEIPLLFALKYRVGNDMNLVFSFGPYIDLGLSGDEKREYIKHYYDTMEGNKTESVTNSRSLFGKRFTGGFAYGIGVEYGRFLIGGTGRVGCTSWNHSEGFIDVAFEIGYRF	not soluble

###

# Assay overview: soluble on expression in E. coli; label from the status in PepcDB or PDB records

Sequence entry	soluble on expression in E. coli
MKGIEVENLKFSHNGREILHDINFEIDKGSFLIILGPNGAGKTTLLRCIAGILKYKGSIKVLGNDIKELSRIELAKLLAYVPQRIEPGFLRVFDFVLLGRKPYMGLNPGRKDLKAVEDALRLLGIQRLEDRIMKTLSGGELQKVAIARAIAQETPVILLDEPTNNLDPKSQIEVMEIIKDLVKRGKTVVTVMHDLTLALRFGEEFLFLKDGRSTGLLTREELEEKILSETYGVKIRVARVEGEVIPLVGL	soluble
MAGDPMSIPFFSFSWAVMSNLTYLQGYPEQLLSQVRTLINEQRLGDVLAKRYPGTHDYATDKALWQYTQDLKNQFLRNAPPINKVMYDNKIHVLKNALGLHTAVSRVQGSKLKAKAEIRVATVFRNAPEPFLRMIVVHELAHLKEKEHNKAFYQLCCHMEPQYHQLEFDTRLWLTQLSLGQDKILEHHHHHH	not soluble
GPGSMSSLTEGARASHTSSKEAGYYRLQSPKHINIDPCVYEIRTMRGSGPGGQGTNSSSNKVELRADMELLSEFFDEELLAALRRHEAGGALTNDGTTIVVSCHEHRSALQNKEGCLRKLQTLLHKASWVPPAEAGLVERPSFIVTEQKVRRRKKSNMNRMTRSARSGSW	soluble
MSLARMSRRSRGAAGAQSVVKPETPMAQVLHQFNYCPCQYLEQNWIVPKQPWLLNLDGWRDNPNFNLWCLEEWALAPVPETAFNKPHHSLALLPPDALSTLMLTIGGALHSFAMRQVVLKKPKQCLNNVFGLDIARFLIQQGPMLLSQWPKGWQKALPDVMKEDEVERHMLKQGYAWMKFILASSSHDILLRWQFKLDQSLSQVKENTSWLVEEQRDLAYRLTKKIAKQVIPQWFHLLKEGHHHHHH	not soluble
MGFHLRGNNDFAFKRLYINLPQNSQMRAQLRRLIDNGSDTVVVSDKQDADAFLDVLSENRVKTISSLTPQGVVREYRITYRFSFQLRDAHDNLLIPPSEITLFRDLSYNETQVLAKDYEEAALYRDMQGDIVNQLVRRLASVRLPSLEHHHHHH	soluble
MTGITVSDSAARRIAKILDSEPGKTALRVSVEGGGCSGFSYKYDLVDAQTEDDIVIEKLGARVLIDSISVPYMDGSEIDFVDDLMGQSFQIRNPNATASCGCGTSFAILEHHHHHH	soluble
MGSDKIHHHHHHSEEIFNGQVTDGEHSGAQLNIVPTVSSESTETRAGFDPKTDWAAGDALGLFMYKSSGWGDAYPRYDAQNNKSTRQANGWSQASPVYLLVDKATIWAYYPYNQAVTDGTKIPVPINVGTSVDYMWGKSTNQVSVIETDARIPMKHALSQFVVRLKVSPEYHNDGNLTSAKLKATGAKFATTGTMNLNDGGKITFQPTSTELTWSPNTTVPAQGQQAVDYAAAIYPMTLAAGEVSLEVVIDGATYTYAIPQITWEAGKRYIYSITMRSNDAEIGGENGQSVTIEGWTSTEEDITLVPVK	not soluble

###

# Assay overview: soluble on expression in E. coli; label from the status in PepcDB or PDB records
Recorded metric: soluble on expression in E. coli

Sequence entry	Recorded metric	Result
MGSDKIHHHHHHMITVVGGTFSKLHKGHKALLEKAIETGNEIVIGLTSDEYVKRNKVYPAIPYKERYRNLYNYMVKKTNKFRIRPIDDRNGNAPYERDYEIIVVSPETYQRSLKINEIRIQNGLPPLKIIRVPYVLAEDLFPISSTRIINGEIDGNGRRLKPVKVAIATNNSAKLKATNDFFHKLMKNFDVIQNTDYKLETQQPFGEVTMNMATKRAMQSLGDNDYAIGIESGIVYERFSRKYFDFHYCVVIDRFGNVTRGSSSGFEVPDRIIDLIKRDMSFSQAYGKVIDTNGIDDSTGIVGKISNGRVRRYDLIMECIRNAFIPRFDPDFYDTTYTPP	soluble on expression in E. coli	not soluble
LSIPEDYQVRLQPTRVAGSYPLVRLEFTGATVDAPLMTQIARKYNIDVSILSSDLDYAGGVKFGMMVAEIFGNADDDEAAIRYLRENNVKVEVLGYVL	soluble on expression in E. coli	not soluble
MEQATQQIAISDAAQAHFRKLLDTQEEGTHIRIFVVNPGTPNAECGVSYCPPNAVEESDIEMKYNTFSAFIDEVSLPFLEEAEIDYVTEELGAQLTLKAPNAKMRKVADDAPLIERVEYVIQTQINPQLANHGGRITLIEITEDGYAVLQFGGGCNGCSMVDVTLKDGVEKQLVSLFPNELKGAKDITEHQRGEHSYYLEHHHHHH	soluble on expression in E. coli	soluble
MPPKTRKTKKEDVEEEAVEEILEETKPAKLPESDESYSRKVVISKEGNLPNSRIIKLRHPKEGLALFRISETCFDEIFAVNDGHRSFFYGESVIENGTIHIFTPYNLVFICLPYLQKTAGKFVEIGEILVDDQVDGIKELAENERILKALEAVSDVKDVLDVKLYRLNDQKMLDWMRRKFDSLKKLLESDAHKSLLSCPEAFDRYVFTFLSEYLSSDLALIVKDHLNIQDATVSENIDMSMKRKAVDDDELEDKKQPVAKKPKESVQSKKLQAASKGTKSISSFFGKKSA	soluble on expression in E. coli	soluble
MGSDKIHHHHHHMKVKAPGRINIIGEHTDYNDGYVLPFAVNRYVFLSIEGSERFIFHSENVNETVEMEKIEKLNKWTDYISGVIASFEKRGYRVSPVKISVSSNLPIGAGLSSSAALEVATAYAISEYFGFNVPKLELVKIAREAEVEFVGVRCGIMDQFTAVFGKKDHAIFLDTMTLEYEYVPLKLEGYEINLVDSNVKHELSSSEYNRRRQECEEVLKTLEKKSFREVTKEDLERLSGTLRKRAQHVLEENERVLKSVQALKEGDFETLGKLLFSSHESLRDLYEVSCEETDFIVDYLRGKEGILGARMVGGGFGGGVIVLSKKGAFGKIKEELVESYRKRFGIDLIFHEIESSDGVQKI	soluble on expression in E. coli	not soluble
SKYGLQDSDEEEEEHPSKTSTKKLKTAPLPPASQTTPLQMALNGKPAPPPQVEKKGQLEHHHHH	soluble on expression in E. coli	soluble
MSIWKEAKDASGRIYYYNTLTKKSTWEKPKELISQEELLLRENGWKAAKTADGKVYYYNPTTRETSWTIPAFEKK	soluble on expression in E. coli	soluble
MDSKQQCVKLNDGHFMPVLGFGTYAPPEVPRSKALEVTKLAIEAGFRHIDSAHLYNNEEQVGLAIRSKIADGSVKREDIFYTSKLWSTFHRPELVRPALENSLKKAQLDYVDLYLIHSPMSLKPGEELSPTDENGKVIFDIVDLCTTWEAMEKCKDAGLAKSIGVSNFNRRQLEMILNKPGLKYKPVCNQVECHPYFNRSKLLDFCKSKDIVLVAYSALGSQRDKRWVDPNSPVLLEDPVLCALAKKHKRTPALIALRYQLQRGVVVLAKSYNEQRIRQNVQVFEFQLTAEDMKAIDGLDRNLHYFNSDSFASHPNYPYSDEYLEHHHHHH	soluble on expression in E. coli	soluble
SSLVRRIISTAKAPAAIGPYSQAVLVDRTIYISGQLGMDPASGQLVPGGVVEEAKQALTNIGEILKAAGCDFTNVVKATVLLADINDFSAVNDVYKQYFQSSFPARAAYQVAALPKGGRVEIEAIAVQGPLTTASL	soluble on expression in E. coli	soluble
MILHPRPSPIAAAMYQLRDIGVDAIILHGPSGCCFRTARLLEIDGIRVFTSAMGENDFIFGAMDKLRDVIAEVLEYLKKETPKSEKYKIGIVGTCASMIIGEDLESLIDDFDDIIIPVDIHSGLVDNTVGAIRAMDGALNAGLIDYSEYLEHHHHHH	soluble on expression in E. coli	not soluble
MGSDKIHHHHHHMLAGGKMGDMKITRHIHACVEISQGNDRIIIDPGTFGAPDLCGATILVTHNHADHVDPELLKPGMTIYAPRSVAHSIPVECHIVEHGRNFTVGSLSVEVLGSEHAMLTHSMPIAENVGYLINGRVLHPGDTFQPIKDVELALVPVNGPWVKMLDVEGYLKKFPPKRFIGIHDGIVNDRGLAINKKFLTHLGETYGSEYSPLEEGESLEI	soluble on expression in E. coli	not soluble
MGSDKIHHHHHHMSTRQLLRNHYVQVDRSKKPYCFLLAKEPEYNDILNNYRIPLGEYQFKRTLFAREWLYKDVWHEMVSFAFCREPLSRCISAFFYLWEAEAQRRAWLPSFNGALNAHGYGLDYSFDQFLDAVVACRDSGSNFSPMGLHFSTHTATMWDDVTDSGGSILLSNIFRLEDLIHGINHVFSVCGVPDKAKPLLRDINTNETKRPFTPSRHHIAKVEDLYGKDFELYETYGRLF	soluble on expression in E. coli	not soluble
MGSDKIHHHHHHMLRECDYSQALLEQVNQAISDKTPLVIQGSNSKAFLGRPVTGQTLDVRCHRGIVNYDPTELVITARVGTPLVTIEAALESAGQMLPCEPPHYGEEATWGGMVACGLAGPRRPWSGSVRDFVLGTRIITGAGKHLRFGGEVMKNVAGYDLSRLMVGSYGCLGVLTEISMKVLPRPRASLSLRREISLQEAMSEIAEWQLQPLPISGLCYFDNALWIRLEGGEGSVKAARELLGGEEVAGQFWQQLREQQLPFFSLPGTLWRISLPSDAPMMDLPGEQLIDWGGALRWLKSTAEDNQIHRIARNAGGHATRFSAGDGGFAPLSAPLFRYHQQLKQQLDPCGVFNPGRMYAEL	soluble on expression in E. coli	not soluble

The reported measurements were obtained from the DeepSol protein solubility set.
